- Assayed Target: CDK9/cyclin T1 (Homo sapiens) (UniProt O60563+P50750)
- Test Method Notes: Inhibition of recombinant full-length human CDK9/cyclinT1 at 1 uM using KTFCGTPEYLAPEVRREPRILSEEEQEMFRDFDYIADWC peptide as substrate measured after 40 mins in presence of [gamma33P]ATP by scintillation counting method relative to control
- Type: protein-complex assay
This section presents compounds with their documented inhibition values.
The response must be a number in % with no trailing unit.

// below: answered compounds
# Smiles Structure, Endpoint Value
measured = [
    ("CN(C)C(=O)c1cc2cnc(Nc3ccc(C(=O)NCCCCCCN=C=S)cc3O)nc2n1C1CCCC1", 81),
    ("CN(C)C(=O)c1cc2cnc(Nc3cccc(NC(=O)CCCCCCCN=C=S)c3)nc2n1C1CCCC1", 96),
    ("CN(C)C(=O)c1cc2cnc(Nc3ccc(CNC(=O)CCCCCCCN=C=S)cc3)nc2n1C1CCCC1", 95),
    ("CN(C)C(=O)c1cc2cnc(Nc3ccc(C(=O)NCCCCN=C=S)cc3O)nc2n1C1CCCC1", 91),
]

State inhibition (CDK9/cyclin T1 (Homo sapiens) (UniProt O60563+P50750)) of CN(C)C(=O)c1cc2cnc(Nc3ccc(C(=O)NCCCN=C=S)cc3F)nc2n1C1CCCC1 .
97
